Values from paper PMC4111141

# tested system: Orco derived from Drosophila melanogaster (DmOrco) (Drosophila melanogaster)
# Sequence (Q9VNB5 whole entry): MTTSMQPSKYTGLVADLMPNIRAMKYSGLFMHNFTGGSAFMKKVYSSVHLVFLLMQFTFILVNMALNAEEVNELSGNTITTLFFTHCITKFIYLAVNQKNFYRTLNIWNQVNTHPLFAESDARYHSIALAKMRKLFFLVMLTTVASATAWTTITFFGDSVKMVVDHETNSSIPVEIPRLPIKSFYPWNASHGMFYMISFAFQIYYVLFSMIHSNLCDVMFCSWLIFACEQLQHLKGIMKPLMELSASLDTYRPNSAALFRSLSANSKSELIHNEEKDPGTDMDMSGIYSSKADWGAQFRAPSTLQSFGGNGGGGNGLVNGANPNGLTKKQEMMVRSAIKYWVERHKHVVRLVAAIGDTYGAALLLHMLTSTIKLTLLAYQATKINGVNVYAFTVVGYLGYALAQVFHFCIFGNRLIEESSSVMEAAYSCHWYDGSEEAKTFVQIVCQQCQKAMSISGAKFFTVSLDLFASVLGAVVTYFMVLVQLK
# protocol: high-throughput calcium mobilization/imaging assay for Orco agonist activity
# Assay type: cell-based
# particulars: HEK293 cells stably expressing DmOrco; mean result of 4 experiments; LA = Low agonism, agonism only at the highest concentration tested, no EC50 could be calculated; listed as VUAA1

- molecule: "CCc1ccc(NC(=O)CSc2nnc(-c3cccnc3)n2CC)cc1"
  EC50, µM: 35

----------
# tested system: Orco derived from Drosophila melanogaster (DmOrco) (Drosophila melanogaster)
# protocol: high-throughput calcium mobilization/imaging assay for Orco agonist activity
# Format: cell-based
# particulars: HEK293 cells stably expressing DmOrco; mean result of 4 experiments; LA = Low agonism, agonism only at the highest concentration tested, no EC50 could be calculated
pEC50: −log10 of the molar value.

- compound: "CCc1ccc(NC(=O)CSc2nnc(-c3cccnc3)n2CC)cc1 [6a]"
  tested system: "Orco derived from Drosophila melanogaster (DmOrco) (Drosophila melanogaster)"
  pEC50: 4.45
